# System: HCV Replicon
# assay_method_text: HCV Replicon inhibition
# Type: cell-based
# condition_parameters: Hepatitis C virus
observation_type: EC50

// lookup EC50 | system=HCV Replicon | key= `CC(C)CCn1cc(C2=NS(=O)(=O)c3cc(NS(C)(=O)=O)ccc3N2)c2ccccc21`
> 50000 nM

Same thing, different compound: CC(C)CCC1(C)C(=O)C(C2=NS(=O)(=O)c3cc(NS(C)(=O)=O)ccc3N2)=C(O)c2ccnn21 (centres unmarked)
1000 to 10000 nM

Same thing, different compound: `Cc1cccc2c(CCC(C)C)c(=O)c(C3=NS(=O)(=O)c4cc(NS(C)(=O)=O)ccc4N3)c(O)n12`
< 100 nM

Same thing, different compound: `CS(=O)(=O)Nc1ccc2c(c1)S(=O)(=O)N=C(c1c(O)n3ccccc3c(CCC3CC3)c1=O)N2`
100 to 1000 nM

Same thing, different compound: CC(C)CCC1(C)C(=O)C(C2=Nc3ccccc3S(=O)(=O)N2)=C(O)c2cccn21 (centres unmarked)
10000 to 50000 nM

Same thing, different compound: `CC(C)CCn1cc(C2=NS(=O)(=O)c3cc(NS(C)(=O)=O)ccc3N2)c2c(O)cccc21`
> 50000 nM

Same thing, different compound: `CC(C)CCn1nc(C2=NS(=O)(=O)c3ccccc3N2)c2ccccc21`
10000 to 50000 nM

Same thing, different compound: `CC(C)CCn1cc(C2=NS(=O)(=O)c3cc(NS(C)(=O)=O)ccc3N2)c2ccc(C(C)C)cc21`
10000 to 50000 nM

Same thing, different compound: `COc1ccc(Cc2c(=O)c(C3=NS(=O)(=O)c4cc(NS(C)(=O)=O)ccc4N3)c(O)n3ccccc23)cc1`
< 100 nM

Same thing, different compound: `CC(C)CCn1c(=O)c(C2=NS(=O)(=O)c3cc(NS(C)(=O)=O)ccc3N2)c(O)n2ccnc12`
100 to 1000 nM

Same thing, different compound: `CC(C)CCc1c2n(c(O)c(C3=NS(=O)(=O)c4cc(NS(C)(=O)=O)ccc4N3)c1=O)CCCC2`
100 to 1000 nM

Same thing, different compound: `COc1ccc2c(C3=NS(=O)(=O)c4cc(NS(C)(=O)=O)ccc4N3)cn(CCC(C)C)c2c1`
> 50000 nM

Same thing, different compound: `CC(C)CCn1cc(C2=NS(=O)(=O)c3cc(NS(C)(=O)=O)ccc3N2)c2ccc(O)cc21`
10000 to 50000 nM

Same thing, different compound: `CC(C)CCc1c(=O)c(C2=NS(=O)(=O)c3cc(NS(=O)(=O)C4CC4)ccc3N2)c(O)n2ccccc12`
< 100 nM

Same thing, different compound: `CC(C)CCn1cc(C2=NS(=O)(=O)c3cc(NS(C)(=O)=O)ccc3N2)c2cc(Cl)ccc21`
> 50000 nM

Same thing, different compound: `CS(=O)(=O)Nc1ccc2c(c1)S(=O)(=O)N=C(c1c(O)n3nccc3n(Cc3ccc(F)cc3)c1=O)N2`
< 100 nM

Same thing, different compound: CC(C)CCC1(C)C(=O)C(C2=NS(=O)(=O)c3cc(NS(C)(=O)=O)ccc3N2)=C(O)c2cccn21 (centres unmarked)
100 to 1000 nM

Same thing, different compound: `COc1cccc2c1c(C1=NS(=O)(=O)c3cc(NS(C)(=O)=O)ccc3N1)cn2CCC(C)C`
10000 to 50000 nM

Same thing, different compound: `O=S1(=O)NC(c2c(O)c(Br)c3ccccc3c2O)=Nc2ccccc21`
1000 to 10000 nM

Same thing, different compound: `CS(=O)(=O)Nc1ccc2c(c1)S(=O)(=O)N=C(c1c(O)n3ccccc3c(Cc3ccccc3F)c1=O)N2`
< 100 nM

Same thing, different compound: `CC(C)CCn1nc(C2=NS(=O)(=O)c3cc(NS(C)(=O)=O)ccc3N2)c2ccccc21`
10000 to 50000 nM

Same thing, different compound: `Cc1cc2n(CCC(C)C)c(=O)c(C3=NS(=O)(=O)c4cc(NS(C)(=O)=O)ccc4N3)c(O)n2n1`
< 100 nM

Same thing, different compound: `CC(C)CCc1c(=O)c(C2=NS(=O)(=O)c3cc(NS(C)(=O)=O)ccc3N2)c(O)n2cc(F)ccc12`
< 100 nM

Same thing, different compound: `CC(C)CCn1c(=O)c(C2=NS(=O)(=O)c3cc(NS(C)(=O)=O)ccc3N2)c(O)n2nc(C3CC3)cc12`
< 100 nM

Same thing, different compound: `CS(=O)(=O)Nc1ccc2c(c1)S(=O)(=O)N=C(c1c(O)n3nccc3n(Cc3ccccc3)c1=O)N2`
< 100 nM

Same thing, different compound: `CC(C)CCn1cc(C2=NS(=O)(=O)c3cc(NS(C)(=O)=O)ccc3N2)c2cc(Br)ccc21`
> 50000 nM

Same thing, different compound: `CS(=O)(=O)Nc1ccc2c(c1)S(=O)(=O)N=C(c1c(O)n3nccc3n(CCc3ccc(F)cc3)c1=O)N2`
< 100 nM

Same thing, different compound: `CC(C)CCc1c(O)c(C2=Nc3ccccc3S(=O)(=O)N2)c(O)c2ccccc12`
1000 to 10000 nM

Same thing, different compound: `Cc1ccc2c(CCC(C)C)c(=O)c(C3=NS(=O)(=O)c4cc(NS(C)(=O)=O)ccc4N3)c(O)n2c1`
< 100 nM

====

# System: HCV Replicon
# assay_method_text: HCV Replicon inhibition
# Assay type: cell-based
# condition_parameters: Hepatitis C virus
Answer each item with its documented EC50.

Endpoint output: EC50 of `CC(C)CCn1c(=O)c(C2=NS(=O)(=O)c3cc(NS(C)(=O)=O)ccc3N2)c(O)n2ncnc12` . Value?
< 0.1 µM

Same thing, different compound: `CC(C)CCn1c(=O)c(C2=NS(=O)(=O)c3ccccc3N2)c(O)n2ccnc12`
> 50 µM

Same thing, different compound: `CS(=O)(=O)Nc1ccc2c(c1)S(=O)(=O)N=C(c1c(O)n3ccccc3c(Cc3ccc(F)c(F)c3)c1=O)N2`
< 0.1 µM

Same thing, different compound: `CC(C)CCn1cc(C2=NS(=O)(=O)c3ccccc3N2)c2ccccc21`
10 to 50 µM

Same thing, different compound: `CC(C)(C)CCc1c(=O)c(C2=NS(=O)(=O)c3cc(NS(C)(=O)=O)ccc3N2)c(O)n2ccccc12`
< 0.1 µM

Same thing, different compound: `CS(=O)(=O)Nc1ccc2c(c1)S(=O)(=O)N=C(c1cccc(C(F)(F)F)c1)N2`
< 0.1 µM

Same thing, different compound: `CC(C)CCc1c(=O)c(C2=NS(=O)(=O)c3cc(NS(C)(=O)=O)ccc3N2)c(O)n2ccccc12`
< 0.1 µM

====

# tested_on: NS5B polymerase protein (Hepatitis C virus genotype 1a)
# Construct: pre-incubated with the RNA template and NS5B polymerase protein; Replizyme
# Sequence (P27958 2421-3011): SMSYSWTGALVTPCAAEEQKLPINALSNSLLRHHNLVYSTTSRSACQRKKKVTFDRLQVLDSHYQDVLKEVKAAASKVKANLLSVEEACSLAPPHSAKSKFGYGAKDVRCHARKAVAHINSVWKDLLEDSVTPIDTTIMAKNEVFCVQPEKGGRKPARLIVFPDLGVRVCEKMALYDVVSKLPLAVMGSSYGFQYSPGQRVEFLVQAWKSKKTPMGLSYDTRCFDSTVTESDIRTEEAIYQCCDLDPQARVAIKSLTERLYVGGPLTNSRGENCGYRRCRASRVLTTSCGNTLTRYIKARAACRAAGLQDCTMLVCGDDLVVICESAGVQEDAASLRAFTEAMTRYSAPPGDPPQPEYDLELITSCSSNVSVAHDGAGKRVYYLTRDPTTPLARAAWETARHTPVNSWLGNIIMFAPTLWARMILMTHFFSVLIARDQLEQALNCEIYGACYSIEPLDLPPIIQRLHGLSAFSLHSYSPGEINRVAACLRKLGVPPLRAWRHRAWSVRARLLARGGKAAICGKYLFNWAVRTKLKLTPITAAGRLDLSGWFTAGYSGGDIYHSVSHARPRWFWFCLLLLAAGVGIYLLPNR
# assay_method_text: biochemical
# condition_parameters: pre-incubated 37° C. 30 minutes; RdRp reaction 90 minutes at 37° C.; read-out: HCV NS5B inhibition EC50
observation_type: EC50

Endpoint output: EC50 of Cc1cc2n(CCC(C)C)c(=O)c(C3=NS(=O)(=O)c4cc(NS(C)(=O)=O)ccc4N3)c(O)n2n1 [Compound 233] . Value?
1000 to 10000 nM

Same thing, different molecule: CS(=O)(=O)Nc1ccc2c(c1)S(=O)(=O)N=C(c1c(O)n3ccccc3c(Cc3ccc(F)c(F)c3)c1=O)N2 [Compound 236]
< 100 nM

Same thing, different molecule: CC(C)CCn1cc(C2=NS(=O)(=O)c3cc(NS(C)(=O)=O)ccc3N2)c2c(O)cccc21 [Compound 209]
100 to 1000 nM

Same thing, different molecule: CC(C)CCc1c(=O)c(C2=NS(=O)(=O)c3cc(NS(=O)(=O)C4CC4)ccc3N2)c(O)n2ccccc12 [Compound 226]
< 100 nM

Same thing, different molecule: CC(C)CCn1cc(C2=NS(=O)(=O)c3cc(NS(C)(=O)=O)ccc3N2)c2ccccc21 [Compound 203]
100 to 1000 nM

Same thing, different molecule: CC(C)CCC1(C)C(=O)C(C2=NS(=O)(=O)c3cc(NS(C)(=O)=O)ccc3N2)=C(O)c2cccn21 (stereo not drawn) [Compound 214]
< 100 nM

Same thing, different molecule: CC(C)CCn1c(=O)c(C2=NS(=O)(=O)c3ccccc3N2)c(O)n2ccnc12 [Compound 221]
100 to 1000 nM

Same thing, different molecule: CC(C)CCn1c(=O)c(C2=NS(=O)(=O)c3cc(NS(C)(=O)=O)ccc3N2)c(O)n2nccc12 [Compound 229]
100 to 1000 nM

Same thing, different molecule: COc1cccc2c1c(C1=NS(=O)(=O)c3cc(NS(C)(=O)=O)ccc3N1)cn2CCC(C)C [Compound 205]
10000 to 50000 nM

Same thing, different molecule: CC(C)CCc1c(=O)c(C2=NS(=O)(=O)c3cc(NS(C)(=O)=O)ccc3N2)c(O)n2ccccc12 [Compound 225]
< 100 nM

Same thing, different molecule: COc1ccc2c(C3=NS(=O)(=O)c4cc(NS(C)(=O)=O)ccc4N3)cn(CCC(C)C)c2c1 [Compound 206]
1000 to 10000 nM

Same thing, different molecule: CC(C)CCn1cc(C2=NS(=O)(=O)c3cc(NS(C)(=O)=O)ccc3N2)c2ccc(O)cc21 [Compound 210]
100 to 1000 nM

Same thing, different molecule: CC(C)CCn1c(=O)c(C2=NS(=O)(=O)c3cc(NS(C)(=O)=O)ccc3N2)c(O)n2ncnc12 [Compound 235]
1000 to 10000 nM

Same thing, different molecule: CC(C)CCC1(C)C(=O)C(C2=NS(=O)(=O)c3cc(NS(C)(=O)=O)ccc3N2)=C(O)c2nccn21 (stereo not drawn) [Compound 215]
1000 to 10000 nM

Same thing, different molecule: CC(C)CCn1nc(C2=NS(=O)(=O)c3ccccc3N2)c2ccccc21 [Compound 202]
10000 to 50000 nM

Data provenance is patent US20090257979A1.
